Sequence of the target: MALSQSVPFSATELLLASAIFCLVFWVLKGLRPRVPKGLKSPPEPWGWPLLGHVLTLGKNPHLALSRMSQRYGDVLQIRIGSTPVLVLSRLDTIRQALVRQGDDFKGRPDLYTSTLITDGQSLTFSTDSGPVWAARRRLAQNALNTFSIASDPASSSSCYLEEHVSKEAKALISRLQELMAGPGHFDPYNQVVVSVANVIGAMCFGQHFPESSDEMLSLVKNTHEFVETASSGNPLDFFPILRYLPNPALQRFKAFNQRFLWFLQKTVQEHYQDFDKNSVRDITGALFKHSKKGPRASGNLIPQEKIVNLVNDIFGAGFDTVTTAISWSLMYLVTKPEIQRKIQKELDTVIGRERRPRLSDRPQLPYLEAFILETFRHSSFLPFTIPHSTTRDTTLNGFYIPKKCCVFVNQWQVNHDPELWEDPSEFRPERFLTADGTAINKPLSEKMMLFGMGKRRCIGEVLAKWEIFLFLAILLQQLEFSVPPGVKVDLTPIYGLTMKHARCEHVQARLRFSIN
pIC50: −log10 of the molar value.
Readout Label: pIC50

Q: Return reported pIC50. Input compound: `Cc1ccc(C(=O)Nc2ccon2)cc1NC(=O)c1cnn(-c2ccccc2F)c1N`
Ans: < 4.40

----------
Target: Tyrosine-protein kinase BTK (Homo sapiens, UniProt Q06187)
Sequence (Q06187 whole entry): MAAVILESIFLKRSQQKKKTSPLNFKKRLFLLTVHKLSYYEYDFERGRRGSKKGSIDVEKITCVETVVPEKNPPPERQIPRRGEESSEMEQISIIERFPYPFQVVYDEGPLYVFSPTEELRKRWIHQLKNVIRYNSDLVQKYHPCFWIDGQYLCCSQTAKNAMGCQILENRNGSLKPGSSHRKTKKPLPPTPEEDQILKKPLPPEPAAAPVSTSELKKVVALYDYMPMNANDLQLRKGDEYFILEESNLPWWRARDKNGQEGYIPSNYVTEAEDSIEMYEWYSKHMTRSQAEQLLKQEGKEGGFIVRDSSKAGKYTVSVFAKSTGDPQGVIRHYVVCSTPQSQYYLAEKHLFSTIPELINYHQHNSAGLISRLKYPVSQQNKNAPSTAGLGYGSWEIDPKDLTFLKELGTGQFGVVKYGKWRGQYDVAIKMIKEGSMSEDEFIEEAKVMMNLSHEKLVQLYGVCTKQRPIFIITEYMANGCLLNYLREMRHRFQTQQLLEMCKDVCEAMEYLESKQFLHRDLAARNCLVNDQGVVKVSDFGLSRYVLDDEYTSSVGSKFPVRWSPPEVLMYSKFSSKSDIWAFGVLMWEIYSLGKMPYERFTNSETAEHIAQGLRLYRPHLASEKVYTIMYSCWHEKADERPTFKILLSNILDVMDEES
Readout Label: IC50

Q: Write IC50 of `Cc1ccc(C(=O)Nc2ccon2)cc1NC(=O)c1cnn(-c2ccccc2F)c1N` ; system used: Tyrosine-protein kinase BTK (Homo sapiens, UniProt Q06187)
Ans: > 15 µM

----------
Biological target: Non-receptor tyrosine-protein kinase TYK2 (Homo sapiens, UniProt P29597)
Sequence (P29597 whole entry): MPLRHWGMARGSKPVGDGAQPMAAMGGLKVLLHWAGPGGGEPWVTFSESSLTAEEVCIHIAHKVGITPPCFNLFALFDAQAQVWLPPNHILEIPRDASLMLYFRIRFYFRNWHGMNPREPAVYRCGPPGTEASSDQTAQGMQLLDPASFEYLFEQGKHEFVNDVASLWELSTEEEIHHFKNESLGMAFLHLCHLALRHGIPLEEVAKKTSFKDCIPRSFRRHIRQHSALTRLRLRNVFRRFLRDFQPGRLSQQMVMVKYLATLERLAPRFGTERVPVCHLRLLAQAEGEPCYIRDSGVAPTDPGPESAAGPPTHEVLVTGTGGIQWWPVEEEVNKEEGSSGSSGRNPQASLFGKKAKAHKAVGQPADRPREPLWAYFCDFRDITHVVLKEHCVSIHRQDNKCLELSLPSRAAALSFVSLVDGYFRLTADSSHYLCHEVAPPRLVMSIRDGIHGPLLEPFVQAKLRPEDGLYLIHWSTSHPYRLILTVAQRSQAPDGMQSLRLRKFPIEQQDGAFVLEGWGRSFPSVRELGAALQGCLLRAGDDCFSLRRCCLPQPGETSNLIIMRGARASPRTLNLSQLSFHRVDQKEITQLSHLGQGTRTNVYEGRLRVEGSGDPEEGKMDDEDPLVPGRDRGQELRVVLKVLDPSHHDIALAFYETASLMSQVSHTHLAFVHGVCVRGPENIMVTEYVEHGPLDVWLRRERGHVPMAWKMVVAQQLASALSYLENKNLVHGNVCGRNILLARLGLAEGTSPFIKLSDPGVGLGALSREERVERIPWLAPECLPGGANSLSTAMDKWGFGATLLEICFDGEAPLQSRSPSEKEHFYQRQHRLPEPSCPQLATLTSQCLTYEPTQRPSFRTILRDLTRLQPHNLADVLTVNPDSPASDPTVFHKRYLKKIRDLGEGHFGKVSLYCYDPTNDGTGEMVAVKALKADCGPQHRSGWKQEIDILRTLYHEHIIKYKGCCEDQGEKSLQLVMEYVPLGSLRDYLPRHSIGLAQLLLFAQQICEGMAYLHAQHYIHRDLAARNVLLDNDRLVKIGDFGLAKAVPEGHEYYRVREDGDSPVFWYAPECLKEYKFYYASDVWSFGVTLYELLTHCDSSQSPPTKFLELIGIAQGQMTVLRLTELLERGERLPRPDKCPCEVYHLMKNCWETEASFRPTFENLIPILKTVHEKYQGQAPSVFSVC
Readout Label: IC50

Q: Quote Non-receptor tyrosine-protein kinase TYK2 (Homo sapiens, UniProt P29597) IC50 for entry `Cc1ccc(C(=O)Nc2ccon2)cc1NC(=O)c1cnn(-c2ccccc2F)c1N` .
Ans: > 5 µM

----------
Test: Metabolic rate in rat liver microsomes at 3 uM after 10 mins
Readout Label: metabolic rate at 10 min, 3 µM (nmol/min/mg)
All answers are understood in nmol/min/mg, so give the number only.

Q: Answer with the recorded metabolic rate at 10 min, 3 µM of `Cc1ccc(C(=O)Nc2ccon2)cc1NC(=O)c1cnn(-c2ccccc2F)c1N` only.
Ans: 0

----------
Biological target: Signal transducer and activator of transcription 3 (Homo sapiens, UniProt P40763)
Sequence (P40763 whole entry): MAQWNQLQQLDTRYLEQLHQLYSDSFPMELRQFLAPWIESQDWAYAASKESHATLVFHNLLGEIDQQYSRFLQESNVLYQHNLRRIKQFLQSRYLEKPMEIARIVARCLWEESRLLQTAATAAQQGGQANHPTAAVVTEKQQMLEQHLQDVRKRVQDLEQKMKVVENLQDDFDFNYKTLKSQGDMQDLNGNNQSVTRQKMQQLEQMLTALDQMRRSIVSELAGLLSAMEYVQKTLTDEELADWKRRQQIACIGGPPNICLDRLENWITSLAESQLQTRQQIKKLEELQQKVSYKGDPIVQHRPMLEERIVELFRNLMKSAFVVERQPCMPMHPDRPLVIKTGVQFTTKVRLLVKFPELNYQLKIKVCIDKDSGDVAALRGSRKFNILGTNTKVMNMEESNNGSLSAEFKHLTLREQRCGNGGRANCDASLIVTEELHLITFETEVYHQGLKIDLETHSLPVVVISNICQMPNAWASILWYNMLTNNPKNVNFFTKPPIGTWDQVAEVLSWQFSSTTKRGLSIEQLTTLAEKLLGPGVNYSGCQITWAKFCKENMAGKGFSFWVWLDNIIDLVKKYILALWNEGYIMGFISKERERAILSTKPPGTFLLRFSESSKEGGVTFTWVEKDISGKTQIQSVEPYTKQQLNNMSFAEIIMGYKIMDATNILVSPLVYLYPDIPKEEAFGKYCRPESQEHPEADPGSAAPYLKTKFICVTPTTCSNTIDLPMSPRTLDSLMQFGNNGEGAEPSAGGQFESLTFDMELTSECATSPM
pIC50: −log10 of the molar value.
Readout Label: pIC50

Q: Please indicate pIC50 recorded for `Cc1ccc(C(=O)Nc2ccon2)cc1NC(=O)c1cnn(-c2ccccc2F)c1N`
Ans: < 5.00

----------
Target: Cytochrome P450 2C9 (Homo sapiens, UniProt P11712)
Sequence (P11712 whole entry): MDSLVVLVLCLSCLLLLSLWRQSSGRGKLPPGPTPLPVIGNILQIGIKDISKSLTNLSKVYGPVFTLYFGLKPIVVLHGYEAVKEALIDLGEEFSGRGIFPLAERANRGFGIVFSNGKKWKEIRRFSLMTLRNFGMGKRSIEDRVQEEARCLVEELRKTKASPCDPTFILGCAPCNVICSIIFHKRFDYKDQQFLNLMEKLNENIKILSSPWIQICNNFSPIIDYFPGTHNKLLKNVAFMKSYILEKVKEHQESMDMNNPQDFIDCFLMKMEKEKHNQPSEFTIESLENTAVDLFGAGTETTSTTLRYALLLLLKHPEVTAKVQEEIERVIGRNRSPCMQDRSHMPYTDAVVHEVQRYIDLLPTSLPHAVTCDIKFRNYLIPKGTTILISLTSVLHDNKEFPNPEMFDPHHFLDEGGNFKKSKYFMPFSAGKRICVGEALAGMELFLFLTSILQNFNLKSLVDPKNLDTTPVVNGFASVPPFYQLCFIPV
Readout Label: pIC50
pIC50 here: minus log base 10 of the concentration, concentration in moles per litre.

Q: Find the measured pIC50 of `Cc1ccc(C(=O)Nc2ccon2)cc1NC(=O)c1cnn(-c2ccccc2F)c1N` and report it.
Ans: 4.64

----------
Molecular target: Mitogen-activated protein kinase 14 (Homo sapiens, UniProt Q16539)
Sequence (Q16539 whole entry): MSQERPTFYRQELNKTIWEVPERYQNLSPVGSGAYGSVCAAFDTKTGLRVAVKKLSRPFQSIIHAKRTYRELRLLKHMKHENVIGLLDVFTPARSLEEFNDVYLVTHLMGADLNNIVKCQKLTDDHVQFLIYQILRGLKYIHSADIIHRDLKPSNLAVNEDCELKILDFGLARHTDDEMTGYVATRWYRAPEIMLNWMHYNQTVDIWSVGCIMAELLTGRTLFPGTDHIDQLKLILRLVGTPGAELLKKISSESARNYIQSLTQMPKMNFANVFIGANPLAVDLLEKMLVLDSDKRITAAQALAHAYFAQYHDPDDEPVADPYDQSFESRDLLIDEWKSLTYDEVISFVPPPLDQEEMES
Test: Inhibition of human recombinant p38alpha
Readout Label: pIC50
The scale used: pIC50 is minus the common logarithm of the concentration in molar units.

In the examples that follow, each entry is paired with its recorded pIC50.
Q: Return pIC50 for the following compound: `CCCCn1ncc(C(=O)Nc2cc(C(=O)Nc3ccon3)ccc2C)c1N`
Ans: 8.70

Q: Tell me its pIC50 given `Cc1ccc(C(=O)Nc2ccon2)cc1NC(=O)c1cnn(-c2ccccc2F)c1N` as the entry.
Ans: 8.70

Q: Give a short answer stating reported pIC50 for `Cc1ccc(C(=O)Nc2ccnn2C)cc1NC(=O)c1cnn(-c2ccccc2F)c1N` .
Ans: 8.40

Q: Please report pIC50 for the following compound: `CNc1c(C(=O)Nc2cc(C(=O)Nc3ccon3)ccc2C)cnn1-c1ccccc1`
Ans: 8.30

Q: Return reported pIC50. Input compound: `Cc1ccc(C(=O)Nc2ccon2)cc1NC(=O)c1cnn(-c2ccc(F)cc2)c1N`
Ans: 8.70

Q: Assign pIC50 to the following record: `Cc1ccc(C(=O)Nc2ccnn2C)cc1NC(=O)c1cnn(-c2ccccc2)c1N`
Ans: 8.15

Continuing:
Q: Give the measured pIC50 for `CCCCn1ncc(C(=O)Nc2cc(C(=O)Nc3ccnn3C)ccc2C)c1N`
Ans: 8.15

Q: Report pIC50 for `Cc1ccc(C(=O)NC2CC2)cc1NC(=O)c1cnn(-c2ccccc2)c1N`
Ans: 8.15

Q: Consider the compound `CCn1nccc1NC(=O)c1ccc(C)c(NC(=O)c2cnn(-c3ccc(F)cc3)c2N)c1` . State its measured pIC50.
Ans: 8.70

Q: Quote pIC50 reported for `CNC(=O)c1ccc(C)c(NC(=O)c2cnn(-c3ccccc3)c2N)c1` please.
Ans: 7.85

Q: Give reported pIC50 value for `CCNC(=O)c1ccc(C)c(NC(=O)c2cnn(-c3ccccc3)c2N)c1`
Ans: 8.10

Q: Consider the compound `Cc1ccc(C(=O)Nc2ccon2)cc1NC(=O)c1cnn(-c2ccccn2)c1N` . State its measured pIC50.
Ans: 8.70

----------
Biological target: Voltage-gated inwardly rectifying potassium channel KCNH2 (Homo sapiens, UniProt Q12809)
Sequence (Q12809 whole entry): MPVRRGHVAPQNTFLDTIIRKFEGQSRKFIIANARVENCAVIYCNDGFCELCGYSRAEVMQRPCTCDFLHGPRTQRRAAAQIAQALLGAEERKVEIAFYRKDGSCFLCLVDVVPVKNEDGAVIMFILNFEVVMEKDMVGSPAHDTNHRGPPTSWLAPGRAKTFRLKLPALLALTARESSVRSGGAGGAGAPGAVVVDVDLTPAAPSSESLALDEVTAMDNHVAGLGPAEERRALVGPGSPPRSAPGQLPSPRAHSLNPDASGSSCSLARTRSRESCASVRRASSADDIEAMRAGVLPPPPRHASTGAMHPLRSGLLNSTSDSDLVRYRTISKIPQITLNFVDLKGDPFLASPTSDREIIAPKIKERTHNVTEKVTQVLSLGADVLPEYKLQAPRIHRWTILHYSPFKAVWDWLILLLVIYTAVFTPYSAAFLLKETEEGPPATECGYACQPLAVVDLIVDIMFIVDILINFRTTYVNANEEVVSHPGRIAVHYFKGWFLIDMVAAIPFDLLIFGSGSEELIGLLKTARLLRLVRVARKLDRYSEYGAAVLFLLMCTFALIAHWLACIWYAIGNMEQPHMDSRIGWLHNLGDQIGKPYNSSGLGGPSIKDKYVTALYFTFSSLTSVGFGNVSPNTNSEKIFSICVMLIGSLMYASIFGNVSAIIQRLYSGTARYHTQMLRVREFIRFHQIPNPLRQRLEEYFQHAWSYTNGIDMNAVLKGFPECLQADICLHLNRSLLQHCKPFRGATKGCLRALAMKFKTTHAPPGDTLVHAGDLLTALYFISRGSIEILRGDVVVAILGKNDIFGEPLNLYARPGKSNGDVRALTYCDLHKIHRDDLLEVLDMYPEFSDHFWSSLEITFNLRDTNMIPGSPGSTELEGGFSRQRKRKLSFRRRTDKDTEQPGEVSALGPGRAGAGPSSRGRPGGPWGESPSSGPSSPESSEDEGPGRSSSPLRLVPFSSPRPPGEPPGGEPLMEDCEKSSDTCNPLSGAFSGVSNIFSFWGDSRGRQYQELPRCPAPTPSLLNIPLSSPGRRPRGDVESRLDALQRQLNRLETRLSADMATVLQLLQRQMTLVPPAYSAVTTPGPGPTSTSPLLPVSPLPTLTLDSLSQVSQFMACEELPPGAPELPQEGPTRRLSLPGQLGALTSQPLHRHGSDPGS
Readout Label: IC50

Q: Return reported IC50 for target or system Voltage-gated inwardly rectifying potassium channel KCNH2 (Homo sapiens, UniProt Q12809), item `Cc1ccc(C(=O)Nc2ccon2)cc1NC(=O)c1cnn(-c2ccccc2F)c1N` .
Ans: > 160 µM

----------
Assay: Aqueous solubility of the compound at pH 6.5
Format: physicochemical
Readout Label: solubility (µg/mL)
Kindly provide the numeric value in µg/mL only, without the unit symbol.

Q: Identify the reported solubility for the following entry. `Cc1ccc(C(=O)Nc2ccon2)cc1NC(=O)c1cnn(-c2ccccc2F)c1N`
Ans: 33

----------
Assay: Apparent permeability across human Caco-2 cells
Type: ADME, cell-based
Conditions: read-out: permeability
Readout Label: Papp (×10⁻⁶ cm/s)
The reply should be a number in ×10⁻⁶ cm/s, with the unit left off.

Q: Indicate the recorded Papp value for this compound: `Cc1ccc(C(=O)Nc2ccon2)cc1NC(=O)c1cnn(-c2ccccc2F)c1N`
Ans: 23.1

----------
Assay: Metabolic rate in human liver microsomes at 3 uM after 10 mins
Readout Label: metabolic rate at 10 min, 3 µM (nmol/min/mg)
Give a bare numeral; the unit nmol/min/mg is implied.

Q: Respond only with metabolic rate at 10 min, 3 µM recorded for `Cc1ccc(C(=O)Nc2ccon2)cc1NC(=O)c1cnn(-c2ccccc2F)c1N`
Ans: 0.001

----------
Target: Mitogen-activated protein kinase 14 (Homo sapiens, UniProt Q16539)
Assay: Inhibition of human recombinant p38alpha
Here, each record is paired with measured IC50 data.
Could you give me the number in nM? Just the number is fine.

Q: Please indicate IC50 recorded for `CCNc1c(C(=O)Nc2cc(C(=O)Nc3ccon3)ccc2C)cnn1-c1ccccn1`
Ans: 4

Q: Read off the recorded IC50 for `CCn1nccc1NC(=O)c1ccc(C)c(NC(=O)c2cnn(-c3ccccc3)c2N)c1`
Ans: 5

Q: Identify measured IC50 associated with `CCNc1c(C(=O)Nc2cc(C(=O)Nc3ccon3)ccc2C)cnn1-c1ccccc1C`
Ans: 5

Q: Recall and state the measured IC50 for `CCNC(=O)c1ccc(C)c(NC(=O)c2cnn(-c3ccccc3)c2NCC)c1` .
Ans: 6

Attention now shifts to the item below.
Q: Output IC50 of `CCn1nccc1NC(=O)c1ccc(C)c(NC(=O)c2cnn(-c3ccccc3F)c2N)c1`
Ans: 3

Measured values drawn from ChEMBL document CHEMBL1287714 for this set.
